Recorded LC50, CL for the following molecules
- System: Cabbage Looper [Trichoplusia ni (Hubner)]
- assay: Cabbage looper insecticidal test
- Format: in vivo
- setupConditions: second-instar larvae, percent in solution; 3-5 days
Give the number; % is assumed, so skip it.

Recorded LC50, CL, per entry:
{"columns": ["molecule", "LC50, CL, %"],
 "data": [
  ["C=CCOc1cccc(COC(=Nc2cccc(C(F)(F)F)c2)C(C)C)c1 [Compound 480]", 0.01],
  ["CC(C)C(=Nc1cc(F)ccc1F)OCc1cccc(Oc2ccccc2)c1 [Compound 56]", 0.01],
  ["CC(C)C(=Nc1ccc(F)c(I)c1)OCc1cccc(Oc2ccc(F)cc2)c1 [Compound 449]", 0.0001],
  ["CC(C)C(=Nc1ccc(F)c(Cl)c1)OCc1cccc(Oc2ccc(F)cc2)c1 [Compound 89]", 0.00003],
  ["CSc1ccc(N=C(OCc2cccc(Oc3ccccc3)c2)C(C)C)cc1 [Compound 142]", 0.005]
]}

LC50, CL reading for CC(C)C(=Nc1c(F)c(F)c(F)c(F)c1F)OCc1cccc(Oc2ccc(F)cc2F)c1 [Compound 232] : 0.004

LC50, CL reading for FC(F)(F)c1ccc(N=C(OCc2cccc(Oc3ccccc3)c2)C(Cl)Cl)cc1 [Compound 61] : 0.001

LC50, CL reading for CC(C)C(=Nc1ccc(I)c(Cl)c1)OCc1cccc(Oc2ccc(F)cc2)c1 [Compound 374] : 0.00058

LC50, CL reading for Cc1c(F)cccc1N=C(OCc1cccc(Oc2ccccc2)c1)C(C)C [Compound 73] : 0.004

LC50, CL reading for CC(C)C(=Nc1ccc2c(c1)OCO2)OCc1cccc(Oc2ccccc2F)c1 [Compound 183] : 0.00075

LC50, CL reading for Cc1ccc(N=C(OCc2cccc(Oc3ccccc3)c2)C(C)(C)C)cc1C [Compound 167] : 0.02
